Assay: AUC (0 to 72 hrs) in Sprague-Dawley rat at 15 mg/kg, po measured after 0.08 to 72 hrs post dose by LC-MS/MS analysis
Format: ADME, organism-based
Design: dose 15 mg/kg, time < 72 hr, route oral
Details: in vivo
measure: AUC(0-t) at 72 h (ng·h/mL)
Dear colleague, please return just the value in ng·h/mL, with no unit written.

Dear colleague, please send me the reported AUC(0-t) at 72 h for `CN(C)CCN(C)c1ccc(C#N)c(CN2CCN(c3ccc(Cl)cc3)CC2)c1` when you can. 9590

* * *

Assay: Half life in beagle dog at 5 mg/kg, iv measured after 0.08 to 72 hrs post dose by LC-MS/MS analysis
Format: ADME, organism-based, Canis lupus familiaris
Conditions: in vivo
measure: half-life (min)
Provide only the numeric value, understood in min.

Answer with the recorded half-life of `CN(C)CCN(C)c1ccc(C#N)c(CN2CCN(c3ccc(Cl)cc3)CC2)c1` only. 437

* * *

Assay: Cmax in Sprague-Dawley rat at 5 mg/kg, iv measured after 0.08 to 72 hrs post dose by LC-MS/MS analysis
Format: ADME, organism-based
Set-up: dose 5 mg/kg, route intravenous
Settings: in vivo
measure: Cmax

Read the entry `CN(C)CCN(C)c1ccc(C#N)c(CN2CCN(c3ccc(Cl)cc3)CC2)c1` and write its reported Cmax. 617 ng/mL

* * *

Would you mind telling me the reported bioavailability of each entry?
Assay: Oral bioavailability in Sprague-Dawley rat 15 mg/kg measured after 0.25 to 72 hrs by LC-MS/MS analysis
Type: ADME, organism-based
Conditions: in vivo

Using known records, supply bioavailability for `CN(C)CCN(C)c1ccc(C#N)c(CN(C)c2ccc(Cl)cc2)c1` < 5%

Let me know recorded bioavailability for `Cc1ccc(NCc2cc(N3CCN(C)CC3)ccc2C#N)cc1` , thanks. < 5%

* * *

Test: Selectivity index, ratio of CC50 for cytotoxicity in human Huh7.5 cells assessed as reduction in cell viability incubated for 96 hrs by MTT assay to EC50 for antiviral activity against HCV J6/JFH/JC1 infected in human Huh7.5 cells incubated for 72 hrs by In-Cell Western assay
Type: toxicity, cell-based
Conditions: read-out: Ratio CC50/EC50
measure: selectivity ratio

Identify the reported selectivity ratio for the following entry. `N#Cc1ccc(NCc2ccccn2)cc1CN1CCN(c2ccc(Cl)cc2)CC1` > 14

Name the recorded selectivity ratio of the compound listed here: `N#Cc1ccc(N2CCC(N3CCCC3)CC2)cc1CN1CCN(c2ccc(Cl)cc2)CC1` 42

Given `CN(C)CCN(C)c1ccc(C#N)c(CN2CCN(c3ccc(Cl)cc3)CC2)c1` , respond with its selectivity ratio. 111 to 154

Query selectivity ratio for `CN(C)CCN(C)c1ccc(C#N)c(CN2CCN(c3ccc(Cl)cc3Cl)CC2)c1` 59

State its selectivity ratio for this compound: `N#Cc1ccc(N2CCNCC2)cc1CN1CCN(c2ccc(Cl)cc2)CC1` 20

Supply recorded selectivity ratio for `CNCCN(C)c1ccc(C#N)c(CN2CCN(c3ccc(Cl)cc3)CC2)c1` here. 54

Please report selectivity ratio for the following compound: `N#Cc1ccc(OCCN2CCCC2)cc1CN1CCN(c2ccc(Cl)cc2)CC1` 20

Consider the compound `CN(C)CCN(C)c1ccc(C#N)c(CN2CCNCC2)c1` . State its measured selectivity ratio. > 5

Tell us which selectivity ratio value is on record for `CC(C)CCNc1ccc(C#N)c(CN2CCN(c3ccc(Cl)cc3)CC2)c1` > 1

Hello, please tell me recorded selectivity ratio for this one: `CN(C)CCN(C)c1ccc(C#N)c(CN2CCN(Cc3ccc(Cl)cc3)CC2)c1` 14

Query selectivity ratio for `CN(C)CCCN(C)c1ccc(C#N)c(CN2CCN(c3ccc(Cl)cc3)CC2)c1` 36

Tell me its selectivity ratio given CC1CN(Cc2cc(N(C)CCN(C)C)ccc2C#N)CCN1c1ccc(Cl)cc1 (stereo unspecified) as the entry. 42

Note down selectivity ratio recorded for `CN(C)CCN(C)c1ccc(C#N)cc1CN1CCN(c2ccc(Cl)cc2)CC1` 11

Report measured selectivity ratio; entry is `CCC[C@H](NC(=O)[C@@H]1[C@H]2CCC[C@H]2CN1C(=O)[C@@H](NC(=O)[C@@H](NC(=O)c1cnccn1)C1CCCCC1)C(C)(C)C)C(=O)C(=O)NC1CC1` 377

Entry `CN(C)CCN(C)c1ccc(C#N)c(CN2CCN(c3ccc(F)cc3)CC2)c1` needs its selectivity ratio filled in; supply it. 70

Supply selectivity ratio value. Item: `CN(C)CCN(C)c1ccc(C#N)c(CN2CCN(c3ccc(Br)cc3)CC2)c1` 128
